tested.system: α1 and β1 subunits of guanylate cyclase (sGC), expressed in Sf9 cells (Homo sapiens, UniProt Q02108+Q02153)
Construct: made in house; host or cells: Sf9 insect cells (baculovirus co-infection); high-speed supernatant used unpurified
Sequence (Q02108 whole entry): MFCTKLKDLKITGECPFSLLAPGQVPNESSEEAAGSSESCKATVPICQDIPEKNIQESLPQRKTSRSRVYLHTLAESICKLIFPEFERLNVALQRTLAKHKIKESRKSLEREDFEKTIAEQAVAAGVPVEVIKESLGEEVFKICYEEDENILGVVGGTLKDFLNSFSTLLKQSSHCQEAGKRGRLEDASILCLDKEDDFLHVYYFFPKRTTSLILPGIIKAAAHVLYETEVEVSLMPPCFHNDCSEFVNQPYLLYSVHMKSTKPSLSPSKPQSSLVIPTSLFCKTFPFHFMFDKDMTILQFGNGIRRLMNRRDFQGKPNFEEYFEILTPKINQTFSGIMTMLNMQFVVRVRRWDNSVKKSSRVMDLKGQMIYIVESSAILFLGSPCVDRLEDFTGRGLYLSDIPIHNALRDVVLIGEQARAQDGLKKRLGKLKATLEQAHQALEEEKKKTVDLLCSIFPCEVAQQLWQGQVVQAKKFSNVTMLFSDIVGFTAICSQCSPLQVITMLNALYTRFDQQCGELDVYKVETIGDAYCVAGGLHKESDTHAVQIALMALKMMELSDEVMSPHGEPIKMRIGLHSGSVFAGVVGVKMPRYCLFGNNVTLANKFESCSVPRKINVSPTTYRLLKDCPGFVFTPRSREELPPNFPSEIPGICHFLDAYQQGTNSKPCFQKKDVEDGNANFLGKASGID
Sequence (Q02153 whole entry): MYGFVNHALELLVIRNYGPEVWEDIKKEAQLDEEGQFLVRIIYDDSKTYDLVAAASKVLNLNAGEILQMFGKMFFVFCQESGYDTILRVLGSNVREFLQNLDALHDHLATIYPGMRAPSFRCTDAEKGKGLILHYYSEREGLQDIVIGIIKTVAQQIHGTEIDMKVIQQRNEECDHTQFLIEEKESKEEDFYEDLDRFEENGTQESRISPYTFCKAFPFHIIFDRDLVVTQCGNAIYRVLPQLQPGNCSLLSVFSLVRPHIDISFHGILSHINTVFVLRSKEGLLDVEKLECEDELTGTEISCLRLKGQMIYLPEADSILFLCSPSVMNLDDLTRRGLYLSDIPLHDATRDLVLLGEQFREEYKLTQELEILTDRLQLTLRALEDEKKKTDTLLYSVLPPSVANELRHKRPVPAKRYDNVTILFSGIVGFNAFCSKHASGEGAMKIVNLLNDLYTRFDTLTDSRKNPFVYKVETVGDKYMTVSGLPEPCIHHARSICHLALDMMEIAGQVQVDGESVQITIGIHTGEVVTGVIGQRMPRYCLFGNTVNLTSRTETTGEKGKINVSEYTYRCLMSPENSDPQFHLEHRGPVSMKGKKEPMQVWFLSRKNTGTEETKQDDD
procedure.summary: Guanylate Cyclase Assay (formation of cyclic GMP from GTP)
Type: biochemical
measurement.setup: (activity at 100 μM with 1 μM SNP − activity at 100 μM)/(activity of SNP at 1 μM − basal activity of sGC)
Record form. Attribute: Mean activation at 100 μM. Fill in for each entry.
Reply briefly: the number, and no unit.

Q: Given the molecule CC(CCCC(C)(C)O)NC(=O)c1ccc(Oc2nn(Cc3ccccc3)c3ccccc23)o1 (stereo not drawn) , what is its reported Mean activation at 100 μM?
Ans: 1.5

Q: Okay, and O=C(NN1CCOCC1)c1ccccc1Oc1nn(Cc2ccccc2)c2ccccc12 ?
Ans: 1.9

Q: Another: CN(C)CCCN1CCN(C(=O)c2ccccc2Oc2nn(Cc3ccccc3)c3ccccc23)CC1
Ans: 2.0

Q: Item: OCc1ccc(Cn2nc(OCc3ccccc3)c3ccccc32)o1
Ans: 1.4

Q: Entry to check: O=C(NCC(O)c1ccccc1)c1ccccc1Oc1nn(Cc2ccccc2)c2ccccc12 (stereo not drawn)
Ans: 2.1

Q: Let us now turn to OCc1cccc(Oc2nn(Cc3ccccc3)c3ccccc23)n1
Ans: 1.8

Q: Another molecule to look at: O=C(NCCN1CCOCC1)c1ccc(Oc2nn(Cc3ccccc3)c3ccccc23)o1
Ans: 2.0

Q: Another: O=C(O)c1ccc(Cn2nc(OCc3ccccc3)c3ccccc32)o1
Ans: 1.9

Q: How about this molecule: O=C(O)c1ccc(Oc2nn(Cc3ccccc3)c3ccccc23)o1
Ans: 1.5

Values from patent US20040048866A1
